Source listed as ChEMBL document CHEMBL5233267.

Biological target: cAMP and cAMP-inhibited cGMP 3',5'-cyclic phosphodiesterase 10A (Rattus norvegicus, UniProt Q9QYJ6)
Sequence (Q9QYJ6 whole entry): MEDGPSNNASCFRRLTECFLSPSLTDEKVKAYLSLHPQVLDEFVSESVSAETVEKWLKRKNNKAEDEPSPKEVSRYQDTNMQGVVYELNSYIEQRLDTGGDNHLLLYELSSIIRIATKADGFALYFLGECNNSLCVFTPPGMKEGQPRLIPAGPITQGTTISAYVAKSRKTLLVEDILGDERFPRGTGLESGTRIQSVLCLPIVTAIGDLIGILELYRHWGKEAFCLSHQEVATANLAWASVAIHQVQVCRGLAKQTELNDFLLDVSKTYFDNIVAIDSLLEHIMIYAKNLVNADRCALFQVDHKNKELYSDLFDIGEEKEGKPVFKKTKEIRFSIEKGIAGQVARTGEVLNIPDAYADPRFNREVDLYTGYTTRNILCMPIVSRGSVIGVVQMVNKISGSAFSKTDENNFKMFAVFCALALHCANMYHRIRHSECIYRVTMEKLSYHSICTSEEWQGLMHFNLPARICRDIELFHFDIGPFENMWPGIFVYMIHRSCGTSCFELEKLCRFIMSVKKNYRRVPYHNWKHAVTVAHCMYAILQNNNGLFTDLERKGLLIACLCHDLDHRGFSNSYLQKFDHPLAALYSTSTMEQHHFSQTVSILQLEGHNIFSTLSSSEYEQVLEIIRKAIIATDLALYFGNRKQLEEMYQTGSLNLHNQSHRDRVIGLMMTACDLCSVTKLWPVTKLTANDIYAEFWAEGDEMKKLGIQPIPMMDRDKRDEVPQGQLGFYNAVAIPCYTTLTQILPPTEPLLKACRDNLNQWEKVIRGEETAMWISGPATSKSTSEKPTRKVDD
Assay: Binding affinity to PDE10A in rat brain caudate-putamen by saturation binding assay
Assay type: tissue-based
pKd: −log10 of the molar value.
measureName: pKd

{"cpdSmiles": "[11CH3]Oc1cn(-c2ccc(C3CCOCC3)cc2F)nc(-c2ccnn2-c2ccccc2)c1=O", "measureName": "pKd", "reportedResult": 7.91}

###

assay: Drug metabolism in rat assessed as intact parent compound level in plasma measured after 40 mins; format: ADME, cell-free; details: read-out: Stability

{"cpdSmiles": "Cc1ccc(C)n2nc(CCc3nc(-c4ccccc4)cn3[11CH3])nc12", "unitAbbrev": "%", "remaining at 40 min": 15}

###

target: cAMP and cAMP-inhibited cGMP 3',5'-cyclic phosphodiesterase 10A (Homo sapiens); experiment: Inhibition of human PDE10A (449 to 789 residues) expressed in Escherichia coli BL21(DE3) using cAMP as substrate incubated for 30 mins by HTRF analysis
Sequence (Q9Y233 whole entry, the tested form may be a part): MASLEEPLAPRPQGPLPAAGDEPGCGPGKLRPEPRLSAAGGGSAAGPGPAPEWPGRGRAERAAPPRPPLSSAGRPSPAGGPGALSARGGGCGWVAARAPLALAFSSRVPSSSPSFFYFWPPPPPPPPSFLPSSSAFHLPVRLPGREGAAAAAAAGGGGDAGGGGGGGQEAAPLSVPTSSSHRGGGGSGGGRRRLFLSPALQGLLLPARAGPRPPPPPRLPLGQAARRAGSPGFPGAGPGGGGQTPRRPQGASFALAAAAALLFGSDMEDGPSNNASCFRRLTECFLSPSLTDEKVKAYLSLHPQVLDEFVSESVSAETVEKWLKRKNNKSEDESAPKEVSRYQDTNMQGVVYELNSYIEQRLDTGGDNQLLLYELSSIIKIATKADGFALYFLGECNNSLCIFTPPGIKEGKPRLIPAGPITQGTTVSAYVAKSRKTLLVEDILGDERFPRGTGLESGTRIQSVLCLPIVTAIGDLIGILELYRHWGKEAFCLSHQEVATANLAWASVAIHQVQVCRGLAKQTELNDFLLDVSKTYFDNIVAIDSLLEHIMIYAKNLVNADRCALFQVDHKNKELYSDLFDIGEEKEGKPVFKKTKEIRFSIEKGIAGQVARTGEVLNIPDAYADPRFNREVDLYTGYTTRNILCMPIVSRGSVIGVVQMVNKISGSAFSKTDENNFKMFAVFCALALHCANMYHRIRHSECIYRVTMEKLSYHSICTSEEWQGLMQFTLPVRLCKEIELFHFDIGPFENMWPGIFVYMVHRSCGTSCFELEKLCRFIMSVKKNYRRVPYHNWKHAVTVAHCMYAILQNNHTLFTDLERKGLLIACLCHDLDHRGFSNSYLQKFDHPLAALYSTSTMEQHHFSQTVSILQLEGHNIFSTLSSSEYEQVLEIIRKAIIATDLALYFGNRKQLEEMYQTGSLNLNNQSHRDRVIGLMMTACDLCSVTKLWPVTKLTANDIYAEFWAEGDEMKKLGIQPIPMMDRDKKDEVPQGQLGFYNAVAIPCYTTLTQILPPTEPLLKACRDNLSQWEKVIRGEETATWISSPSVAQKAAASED

{"cpdSmiles": "Cc1cc(C)n2nc(CCc3cc(O)n4nc(C)cc4n3)nc2n1", "IC50 (nM)": 44}

###

target: cAMP and cAMP-inhibited cGMP 3',5'-cyclic phosphodiesterase 10A (Homo sapiens); experiment: Inhibition of PDE10A (unknown origin) by scintillation proximity assay

{"cpdSmiles": "COc1cn(-c2ccc(C3CCOCC3)cc2F)nc(-c2ccnn2-c2ccccc2)c1=O", "unitAbbrev": "nM", "IC50": 0.77}

###

experiment: Oral bioavailability in rat; type: ADME, organism-based; conditions: in vivo

{"cpdSmiles": "Cc1nc2ccc(F)cc2nc1/C=C/c1nc(NC2CCOCC2)cc(N2CCCC2)n1", "bioavailability [%]": 64}

###

test: Drug metabolism in cynomolgus monkey assessed as intact parent compound level in plasma measured after 90 mins; format: ADME, cell-free, Macaca fascicularis; details: read-out: Stability

{"cpdSmiles": "Cc1ccc(C)n2nc(CCc3nc(-c4ccccc4)cn3[11CH3])nc12", "remaining at 1.5 h": "12%"}

###

Target: cAMP and cAMP-inhibited cGMP 3',5'-cyclic phosphodiesterase 10A (Rattus norvegicus)
Sequence (Q9QYJ6 whole entry): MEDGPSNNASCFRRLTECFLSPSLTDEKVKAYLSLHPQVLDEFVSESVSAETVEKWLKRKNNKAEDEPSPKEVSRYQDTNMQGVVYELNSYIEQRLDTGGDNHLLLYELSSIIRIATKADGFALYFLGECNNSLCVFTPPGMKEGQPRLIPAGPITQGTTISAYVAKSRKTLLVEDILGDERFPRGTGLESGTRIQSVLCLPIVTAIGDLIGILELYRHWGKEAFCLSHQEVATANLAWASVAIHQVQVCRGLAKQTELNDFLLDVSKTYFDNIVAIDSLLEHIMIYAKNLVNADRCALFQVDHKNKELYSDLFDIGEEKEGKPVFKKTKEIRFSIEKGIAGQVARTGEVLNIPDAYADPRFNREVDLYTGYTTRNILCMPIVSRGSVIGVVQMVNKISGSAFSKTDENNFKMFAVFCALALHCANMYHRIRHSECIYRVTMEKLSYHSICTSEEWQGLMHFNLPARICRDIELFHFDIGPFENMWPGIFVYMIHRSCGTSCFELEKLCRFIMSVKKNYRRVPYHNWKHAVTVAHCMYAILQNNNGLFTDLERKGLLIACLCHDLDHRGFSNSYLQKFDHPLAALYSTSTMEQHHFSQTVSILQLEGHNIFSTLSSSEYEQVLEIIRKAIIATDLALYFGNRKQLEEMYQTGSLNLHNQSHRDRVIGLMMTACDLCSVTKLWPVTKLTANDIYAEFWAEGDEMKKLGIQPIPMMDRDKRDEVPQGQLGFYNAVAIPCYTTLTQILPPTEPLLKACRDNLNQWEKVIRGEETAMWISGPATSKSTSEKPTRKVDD
Experiment: Binding affinity to PDE10A in rat brain nucleus accumbens by saturation binding assay
Type: tissue-based

{"cpdSmiles": "[11CH3]Oc1cn(-c2ccc(C3CCOCC3)cc2F)nc(-c2ccnn2-c2ccccc2)c1=O", "Kd": "4.7 nM"}

###

target: cAMP and cAMP-inhibited cGMP 3',5'-cyclic phosphodiesterase 10A (Homo sapiens); experiment: Inhibition of PDE10A2 (unknown origin)
pIC50: −log10 of the molar value.

{"cpdSmiles": "[2H]C([2H])Oc1cn(-c2ccc(C3CCOCC3)cc2F)nc(-c2ccnn2-c2ccccc2)c1=O", "targetSystem": "cAMP and cAMP-inhibited cGMP 3',5'-cyclic phosphodiesterase 10A (Homo sapiens)", "pIC50": 8.74}
